Recorded measurements of CC50, one per entry
assay_protocol: Cytotoxicity against Homo sapiens (human) CEM174 by MTT assay
experimental_context: CEM174 cells, read-out: TC50 (the source's name)
Quick reminder: number only, in µM, skip the unit.

Worked set:
smiles_repr=O=C1OCc2ccc(NC(=S)Nc3ccccc3)cc21 recorded_measurement=36.3
smiles_repr=CCN(CC)c1nc(C)cc(NC(=S)Nc2cccc(Br)c2)n1 recorded_measurement=8.4
smiles_repr=Cc1ccc(NS(=O)(=O)c2ccc(NC(=S)Nc3ccc(Cl)cc3)cc2)cc1 recorded_measurement=77.5
smiles_repr=CCN(CC)c1nc(C)c([N+](=O)[O-])c(NC(=S)Nc2cccc(Br)c2)n1 recorded_measurement=26.2

In the following, a different molecule is considered.
QUERY: Read off the recorded CC50 for "CCN(CC)c1nc(C)c([N+](=O)[O-])c(NC(=S)Nc2cccc(Cl)c2)n1"
RESULT: 31.5
